# assay.system: CHO cells over-expressing the EP3 receptor (Homo sapiens)
# Sequence (P43115 1-390): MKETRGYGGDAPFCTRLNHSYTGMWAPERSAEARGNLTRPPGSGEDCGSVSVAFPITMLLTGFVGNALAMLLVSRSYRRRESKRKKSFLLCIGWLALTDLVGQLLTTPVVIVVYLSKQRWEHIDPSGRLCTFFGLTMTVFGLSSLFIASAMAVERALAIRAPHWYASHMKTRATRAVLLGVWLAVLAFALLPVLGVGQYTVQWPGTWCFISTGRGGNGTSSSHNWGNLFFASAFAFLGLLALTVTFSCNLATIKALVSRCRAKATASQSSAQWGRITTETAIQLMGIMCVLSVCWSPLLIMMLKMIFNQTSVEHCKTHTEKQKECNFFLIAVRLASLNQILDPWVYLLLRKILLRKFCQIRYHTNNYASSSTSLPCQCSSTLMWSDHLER
# assay.info: CHO cell cAMP assay; EP3 cAMP antagonist dose response (sulprostone reference), HTRF
# test.conditions: sulprostone 700 nM (EC80) and FSK 2 μM (EC70); read-out: CHO_cAMP IC50
pIC50: −log10 of the molar value.
recorded.metric: pIC50

molecule: COc1ccc(S(=O)(=O)NC(=O)NC/C=C2\COCc3cnn(Cc4ccc(Cl)cc4Cl)c32)cn1 [Compound #67]
recorded.metric: pIC50
recorded.measurement: 7.13

[I] O=C(C/C=C1\CCCc2cnn(Cc3ccc(Cl)cc3Cl)c21)NS(=O)(=O)c1cc(F)cc(F)c1 [Compound #19]
[II] O=C(C/C=C1\CCCc2cnn(Cc3ccc(Cl)cc3Cl)c21)NS(=O)(=O)c1cc(Cl)c(Cl)s1 [Compound #3]
Choose between I and II : whose measured pIC50 value is numerically larger? Answer format: the label of the selected item.
II

* * *

# assay.system: CHO cells over-expressing the EP3 receptor (Homo sapiens, UniProt P43115)
# assay.info: CHO cell cAMP assay; EP3 cAMP antagonist dose response (sulprostone reference), HTRF
# test.conditions: sulprostone 700 nM (EC80) and FSK 2 μM (EC70); read-out: CHO_cAMP IC50
# Description: Biological Example 2: CHO Cell cAMP Assay This assay monitored the cAMP generation in CHO cells over-expressing the EP3 receptor in the presence or absence of antagonist stimulated with Forskolin (FSK, CAS No. 66428-89-5) and a known EP3 Agonist (sulprostone, CAS No. 60325-46-4). For detection, a homogeneous competitive immunoassay (Time Resolved Fluorescence Energy Transfer (hTR-FRET)) was used. […] IC50 values were determined from a […] (Hill equation) of a single 11-point compound dosing. […]
pIC50: −log10 of the molar value.
recorded.metric: pIC50

Solved cases below.
compound: O=C(NC/C(F)=C1/c2c(cnn2Cc2ccc(Cl)cc2Cl)CCC1F)NS(=O)(=O)c1ccc(Cl)cc1 (centres unmarked)
recorded.measurement: 6.84
//
compound: O=C(C/C=C1\CCCc2cnn(Cc3ccc(Cl)cc3Cl)c21)NS(=O)(=O)c1cc2ccccc2o1
recorded.measurement: 6.16
//
compound: O=C(C/C(F)=C1\CCCc2cnn(Cc3ccc(Cl)cc3Cl)c21)NS(=O)(=O)c1cc(Cl)c(Cl)s1
recorded.measurement: 7.77
//
compound: O=C(NC/C(F)=C1\CCCc2cnn(Cc3ccc(C(F)(F)F)cc3)c21)NS(=O)(=O)c1cc2ccccc2s1
recorded.measurement: 5.90
//
compound: O=C(NC/C(F)=C1/COCc2cnn(Cc3ccc(Cl)cc3Cl)c21)NS(=O)(=O)c1cc(Cl)c(Cl)s1
recorded.measurement: 8.40
//
compound: O=C(NC/C(F)=C1\CCCc2cnn(Cc3ccc(Cl)cc3Cl)c21)NS(=O)(=O)c1ccc(F)c(F)c1
recorded.measurement: 8.40
//
compound: Cc1cc(S(=O)(=O)NC(=O)NC/C(F)=C2\CCCc3cnn(Cc4ccc(Cl)cc4Cl)c32)sc1Cl
recorded.measurement: 8.22
//
compound: O=C(CC/C=C1\CCCc2cnn(Cc3ccc(Cl)cc3Cl)c21)NS(=O)(=O)c1cc2ccccc2s1
recorded.measurement: 7.89

[a] O=C(NC/C=C1\CCCc2cn(Cc3ccc4ccccc4c3)nc21)NS(=O)(=O)c1cc(Cl)c(Cl)s1
[b] COc1ccc(Cl)c(S(=O)(=O)NC(=O)NC/C=C2\COCc3cnn(Cc4ccc(Cl)cc4Cl)c32)c1
[c] O=C(NC/C=C1\CCCc2cnn(Cc3ccc(Cl)cc3Cl)c21)NS(=O)(=O)c1cc(F)cc(F)c1
Please list these compounds in decreasing order of pIC50. Give the labels in the order specified.
c, b, a

* * *

# assay.system: EP3 membrane (EP3 receptor) (Homo sapiens)
# Construct: purchased Millipore HTS092M
# Sequence (P43115 1-390): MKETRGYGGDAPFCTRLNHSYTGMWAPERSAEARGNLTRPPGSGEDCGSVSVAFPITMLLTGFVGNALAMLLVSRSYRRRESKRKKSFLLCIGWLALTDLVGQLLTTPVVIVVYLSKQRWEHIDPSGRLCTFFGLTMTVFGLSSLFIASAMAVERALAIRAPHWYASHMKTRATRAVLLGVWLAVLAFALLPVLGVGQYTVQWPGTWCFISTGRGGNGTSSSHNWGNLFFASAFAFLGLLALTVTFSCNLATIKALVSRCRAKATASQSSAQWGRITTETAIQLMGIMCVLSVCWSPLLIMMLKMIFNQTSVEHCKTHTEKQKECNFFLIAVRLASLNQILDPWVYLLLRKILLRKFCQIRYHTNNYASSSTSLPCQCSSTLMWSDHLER
# assay.info: [3H]-PGE2 binding; EP3 competition binding (SPA)
recorded.metric: Ki (nM)

Solved cases below.
molecule: Cc1cc(Cl)ccc1Cc1nnn2c1/C(=C(\F)CNC(=O)NS(=O)(=O)c1cc(C)c(Cl)s1)CCC2 [Compound #188]
recorded.measurement: 8

molecule: O=C(NC/C=C1\CC(F)(F)Cc2cnn(-c3cccc(C(F)(F)F)c3)c21)NS(=O)(=O)c1ccc(Cl)cc1 [Compound #70]
recorded.measurement: 1000

molecule: Cc1cc(Cl)ccc1Cc1nnn2c1/C(=C(\F)CNC(=O)NS(=O)(=O)c1cc(Cl)c(Cl)s1)CCC2 [Compound #167]
recorded.measurement: 7

molecule: Cn1ncc2ccc(S(=O)(=O)NC(=O)NC/C(F)=C3\CCCc4cnn(Cc5ccc(Cl)cc5Cl)c43)cc21 [Compound #194]
recorded.measurement: 25

molecule: O=C(NC/C=C1\CCCc2cnn(C3CCN(Cc4ccccc4)CC3)c21)NS(=O)(=O)c1cc(Cl)c(Cl)s1 [Compound #148]
recorded.measurement: 6

molecule: COc1ccc(Cl)cc1S(=O)(=O)NC(=O)NC/C(F)=C1\CCCc2cnn(-c3ccc4ccccc4c3)c21 [Compound #115]
recorded.measurement: 1100

[P] O=C(NC/C=C1\CCCc2cnn(-c3cccc(Br)c3)c21)NS(=O)(=O)c1cc(Cl)c(Cl)s1 [Compound #77]
[Q] CN(C/C=C1\COCc2cnn(Cc3ccc(Cl)cc3Cl)c21)C(=O)NS(=O)(=O)c1cc(Cl)c(Cl)s1 [Compound #55]
Choose between P and Q : whose measured Ki value is numerically larger? Answer format: the label of the selected item.
P

[a] COc1ccc(S(=O)(=O)NC(=O)NC/C(F)=C2\COCc3cnn(Cc4ccc(Cl)cc4Cl)c32)cc1Cl [Compound #165]
[b] O=C(NC/C=C1\CCCn2nnc(-c3ccc(C(F)(F)F)cc3)c21)NS(=O)(=O)c1cc(Cl)c(Cl)s1 [Compound #155]
Choose between a and b : whose measured Ki value is numerically larger? Answer format: the label of the selected item.
a

[P] O=C(NS(=O)(=O)c1ccc(Cl)cc1)OC/C=C1\CCCc2cnn(Cc3ccc(Cl)cc3Cl)c21 [Compound #2]
[Q] O=C(C/C=C1\CCCc2cnn(Cc3ccc(Cl)cc3Cl)c21)NS(=O)(=O)c1nc2ccccc2s1 [Compound #21]
Lower value for measured Ki? Options: P , Q Answer format: the label of the selected item.
P

* * *

# assay.system: EP3 membrane (EP3 receptor) (Homo sapiens, UniProt P43115)
# Construct: purchased Millipore HTS092M
# Sequence (P43115 1-390): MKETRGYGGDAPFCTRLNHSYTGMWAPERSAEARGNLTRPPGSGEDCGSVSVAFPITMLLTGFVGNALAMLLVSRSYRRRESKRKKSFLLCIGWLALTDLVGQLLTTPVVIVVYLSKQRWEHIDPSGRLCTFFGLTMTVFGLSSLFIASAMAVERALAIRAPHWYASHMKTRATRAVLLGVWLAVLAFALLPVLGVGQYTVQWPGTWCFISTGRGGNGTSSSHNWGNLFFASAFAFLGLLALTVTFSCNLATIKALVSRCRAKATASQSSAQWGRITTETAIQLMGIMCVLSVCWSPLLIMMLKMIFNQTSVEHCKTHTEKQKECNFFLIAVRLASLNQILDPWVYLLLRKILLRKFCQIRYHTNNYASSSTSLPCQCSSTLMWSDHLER
# assay.info: [3H]-PGE2 binding; EP3 competition binding (SPA)
recorded.metric: Ki (µM)

Solved cases below.
compound: COc1ccccc1S(=O)(=O)NC(=O)NC/C=C1\CCCc2cnn(Cc3ccc(Cl)cc3Cl)c21 [Compound #39]
Ki (µM): 0.062
//
compound: CC(C)S(=O)(=O)NC(=O)CC/C=C1\CCCc2cnn(Cc3ccc(Cl)cc3Cl)c21 [Compound #69]
Ki (µM): 0.179
//
compound: COCn1nc(Cc2ccc(Cl)cc2Cl)c2c1COC/C2=C(/F)CNC(=O)NS(=O)(=O)c1cc(Cl)c(Cl)s1 [Compound #146]
Ki (µM): 0.022
//
compound: O=C(CC/C=C1\CCCc2cnn(-c3cccc(-c4ccc(Cl)cc4Cl)c3)c21)NS(=O)(=O)c1cc(Cl)c(Cl)s1 [Compound #53]
Ki (µM): 0.004
//
compound: Cc1nn(C)cc1S(=O)(=O)NC(=O)NC/C=C1\CCCc2cnn(Cc3ccc(Cl)cc3Cl)c21 [Compound #184]
Ki (µM): 0.014

[P] O=C(NC/C=C1\CCCc2cnn(Cc3ccc(Cl)cc3Cl)c21)NS(=O)(=O)c1nc2ccccc2s1 [Compound #15]
[Q] O=C(NC/C(F)=C1\CCCc2cnn(Cc3cnn(-c4ccccc4)c3)c21)NS(=O)(=O)c1cc(Cl)c(Cl)s1 [Compound #191]
Choose between P and Q : whose measured Ki value is numerically larger? Answer format: the label of the selected item.
Q
(Q: 0.015 µM, P: 0.001 µM)
